Where do the numbers come from? From PubChem BioAssay.

- assay-details: small-molecule binders of probe aInhba, primary screen, biochemical, small-molecule microarray, 635/667 nm fluorescence (AID 1148);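 also: score merges 667nm spot fluorescence with signal-to-noise for antibody binding to printed compounds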
- conditions-used: higher = more signal
Threshold rule: composite z-score greater than or equal to -0.2 is true (1); below that, false (0).

Reference set, count: 10
INSERT INTO results (molecule, group_label) VALUES
  ('C[N+](C)(C)CCCCCCNC(=O)[C@H]1C[C@H]2C(=O)NCC(=O)N2[C@H]1c1cccc(OCCO)c1', 'true (1)'),
  ('COCCCNC(=O)[C@@H]1c2ccccc2C(=O)N(Cc2cc(C(F)(F)F)cc(C(F)(F)F)c2)[C@H]1c1ccc(CO)cc1', 'true (1)'),
  ('CC(C)CNC(=O)[C@@H]1c2ccccc2C(=O)N(Cc2ccccc2)[C@H]1c1ccc(CO)cc1', 'false (0)'),
  ('O=C1C2C=CC(C(O)C(c3ccccc3)c3ccccc3)N(Nc3ccccc3)C2C(=O)N1c1ccccc1 (stereo unspecified)', 'true (1)'),
  ('C/C=C/CN(C(=O)C#Cc1ccccc1)[C@H](CO[Si](C)(C)C(C)(C)C)c1ccccc1', 'false (0)'),
  ('O=C1O[C@H](c2ccccc2)[C@H](c2ccccc2)N2[C@H]1[C@@H](C(=O)NC[C@H](O)c1ccccc1)[C@]1(C(=O)Nc3ccc(C#CCCO)cc31)[C@H]2c1ccccc1OCCO', 'true (1)'),
  ('COC(=O)[C@H](Cc1ccc(O)cc1)N1CC2=CCCC=C[C@@H]2[C@H]1[C@H](O)Cc1ccccc1', 'true (1)'),
  ('COc1ccc([Si](C)(C)[C@@H]2[C@@H](CCO)O[C@]3(C(=O)N(Cc4ccccc4)c4ccc(N5C(=O)c6ccccc6Oc6ccccc65)cc43)[C@H]2C)cc1', 'true (1)'),
  ('C=CCNC(=O)[C@@H]1[C@H]2C(=O)O[C@H](c3ccccc3)[C@H](c3ccccc3)N2[C@H](c2ccc(O)cc2)[C@@]12C(=O)Nc1ccc(C#CC3(O)CCCCCC3)cc12', 'true (1)'),
  ('COCCOC(=O)N1C(=O)[C@@]2(c3cc(C#CC4=CCCCC4)ccc31)[C@H](c1ccc(OCCO)cc1)N1[C@H](c3ccccc3)[C@H](c3ccccc3)OC(=O)[C@H]1[C@@H]2C(=O)N1CCCCCCC1', 'true (1)');

Lab note: next molecule to report on.
Check the entry Cc1ccc(F)cc1S(=O)(=O)N[C@@H]1CCN(Cc2ccc3[nH]ccc3c2)C1 : does composite z-score equal or exceed -0.2?
true (1)

###

- assay-details: E. coli growth modulation, two-sided OD650, primary screen, E. coli filamentation project, strain DRC41, 24 h (AID 1093);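 also: MC1000 strain lacking acrAB efflux and sulA so SOS filamentation is blocked; test concentration not given here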
- conditions-used: OD650, 24 h, higher = more signal, called active from +8 up or from −8 down
readout-type: z-score
Numbers only.

INSERT INTO measurements (molecule, readout_type, measurement) VALUES
  ('CCCC=C(CCC)[C@@H](NS(=O)(=O)c1ccc(Cl)cc1)c1ccccc1', 'z-score', -0.829),
  ('CC(C)C(=C=CC[C@@H](O)c1ccc(OCCO)cc1)CCO', 'z-score', 1.23),
  ('C=CCC(OC(C)=O)[C@@H]1[C@@H](N(Cc2ccc(-c3ccccc3)cc2)C(=O)c2cccc3ccccc23)c2cc(OCCCO)ccc2N1C(=O)c1ccc2ccccc2c1 (some centres undefined)', 'z-score', -0.584),
  ('C=C(CC1([C@@H](NP(=O)(c2ccccc2)c2ccccc2)[C@H]2C[C@@H]2CCN(C(=O)OCC)S(=O)(=O)c2ccc(C)cc2)CC1)c1ccccc1', 'z-score', -0.926);

Each of the following entries comes with a recorded value; kindly state z-score for each.
1. [N-]=[N+]=Nc1ccccc1[C@@H]1OC(c2ccc(OCCCO)cc2)=N[C@]1(Cc1ccccc1)C(N)=O
2. CC(C)C[C@@H]1NC(=O)C([C@@H](C)OCc2ccccc2)NC(=O)[C@@]23C(=O)N[C@@H](Cc4ccccc4)C2[C@H](C)[C@@]2(C)O[C@H]2C3/C=C/CC/C=C/CNC1=O (some centres undefined)
3. CC(C)(C)OC(=O)CC[C@]1(C(=O)N2CCOCC2)N=C(c2ccc(OCCCO)cc2)O[C@H]1c1ccccc1CN=[N+]=[N-]
4. COc1ccc([Si](C)(C)[C@H]2[C@H](CCO)O[C@@]3(C(=O)N(Cc4ccccc4)c4ccc(N(C=O)c5ccccc5)cc43)[C@@H]2C)cc1
5. NCCCC[C@@H]1NC(=O)[C@H]2C[C@@H](C(=O)O)[C@@H](c3cccc(OCCO)c3)N2C1=O
6. C=CCC(OC(C)=O)[C@@H]1[C@@H](N(Cc2ccc(-c3cccc(C(F)(F)F)c3)o2)C(=O)Cc2ccc(F)cc2)c2cc(OCCCO)ccc2N1C(=O)c1ccc2ccccc2n1 (some centres undefined)
7. CCOC(=O)C1=C[C@@H](C(C)(C)C)N(S(=O)(=O)c2ccc(C)cc2)[C@H]1c1ccccc1Cl

1.74
0.957
-0.798
0.773
-1.31
-1.08
-0.766

Each of the following entries comes with a recorded value; kindly state z-score for each.
1. CC(C)CNC(=O)[C@@]1(C)c2ccccc2C(=O)N(Cc2cc(F)cc(C(F)(F)F)c2)[C@H]1c1ccc(CO)cc1
2. COC(=O)[C@@]1(Cc2ccccc2)[C@H]2c3cc(C(=O)N4CCCC4)n(Cc4ccc(C(F)(F)F)nc4)c3C[C@H]2CN1C(=O)c1ccccc1
3. CCOC(=O)C1=CCC(c2cc3ccccc3[nH]2)N(S(=O)(=O)c2ccccc2[N+](=O)[O-])C1 (centres undefined)

[0.149, -0.35, -0.424]
